- Test Name: Half life in rat at 5 mg/kg, po
- Format: ADME, organism-based
- Design: dose 5 mg/kg, route oral
- Stated Conditions: in vivo
Metric Name: half-life (h)
Just the number please, in h, no unit attached.

Need half-life, item CC1CCC(NC(=O)NS(=O)(=O)c2ccc(CCNS(=O)(=O)c3ccc(Br)cc3)cc2)CC1 (stereo unspecified)
1.77

###

Exercise: state measured Activity for each of the molecules provided.
- System: Adipocyte
- Test Name: Effect on 2-deoxy-D-[1-3H]glucose transport in Sprague-Dawley rat adipocytes at 100 uM in absence of insulin by liquid scintillation counting
- Type: functional
Just the number please, in disintegrations/minute, no unit attached.

So what Activity did `Cc1ccc(S(=O)(=O)NCCc2ccc(S(=O)(=O)NC(=S)Nc3ccc(Cl)cc3)cc2)cc1` get with Adipocyte?
7061.15

So what Activity did `Cc1ccc(NC(=S)NS(=O)(=O)c2ccc(CCNS(=O)(=O)c3ccc(C)cc3)cc2)cc1` get with Adipocyte?
4513.06

So what Activity did `O=C(NC1CCCCC1)NS(=O)(=O)c1ccc(CCNS(=O)(=O)c2ccc(Br)cc2)cc1` get with Adipocyte?
6556.61

So what Activity did `O=S(=O)(NCCc1ccc(S(=O)(=O)NC(=S)Nc2ccc(Cl)cc2)cc1)c1ccc(Cl)cc1` get with Adipocyte?
4763.58

So what Activity did CC1CCC(NC(=O)NS(=O)(=O)c2ccc(CCNS(=O)(=O)c3ccc(Cl)cc3)cc2)CC1 (stereo unspecified) get with Adipocyte?
6960.26

So what Activity did `Cc1ccc(S(=O)(=O)NCCc2ccc(S(=O)(=O)NC(=O)NC3CCCCC3)cc2)cc1` get with Adipocyte?
4458.36
